- measured_target: hERG (Homo sapiens)
- Construct: host or cells: CHO (hERG-CHO)
- assay_explanation: CiPA hERG QPatch assay (hERG-CHO automated patch-clamp)
- Format: cell-based
- stated_conditions: human, CHO cells expressing hERG (hERG-CHO); 10 μM; read-out: % inhibition of tail current in hERG-CHO
assay_endpoint: inhibition at 10 µM (%)
Write it as a number; the unit % goes unstated.

Incoming: Which inhibition at 10 µM value is on record for c1ccc(C2(c3ccccc3)OC[C@H](CNCCOc3ccccc3-c3ccncc3)O2)cc1 [(S)-1] ?
Outgoing: 66.7

---

- measured_target: 5-HT1AR (Rattus norvegicus, UniProt P19327)
- Construct: from tissue; hippocampus per the main-text methods
- Sequence (P19327 1-422): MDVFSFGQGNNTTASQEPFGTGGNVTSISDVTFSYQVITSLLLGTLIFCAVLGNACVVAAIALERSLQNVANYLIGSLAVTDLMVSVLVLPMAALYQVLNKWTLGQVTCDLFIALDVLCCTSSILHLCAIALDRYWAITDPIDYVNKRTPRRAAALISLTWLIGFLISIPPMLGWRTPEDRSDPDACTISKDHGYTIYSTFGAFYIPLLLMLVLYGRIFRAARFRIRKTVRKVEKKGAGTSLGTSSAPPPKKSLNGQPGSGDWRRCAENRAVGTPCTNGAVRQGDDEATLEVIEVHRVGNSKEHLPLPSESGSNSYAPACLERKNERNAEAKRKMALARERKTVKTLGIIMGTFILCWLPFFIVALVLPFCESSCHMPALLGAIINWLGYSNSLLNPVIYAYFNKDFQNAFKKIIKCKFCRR
- assay_explanation: Effect of WAY100635 on compound-stimulated [35S]GTPγS binding (Tables SI-1, SI-2)
- Assay type: biochemical
- stated_conditions: Table SI-2; basal set to 100%; read-out: Emax (%) ± SEM of EC80 agonist concentration alone
Listed here: items and their measured Emax.
Write it as a number; the unit % goes unstated.

Cn1cncc1-c1ccccc1OCCNC[C@@H]1COC(c2ccccc2)(c2ccccc2)O1 [(R)-2]
140
c1ccc(C2(c3ccccc3)OC[C@H](CNCCOc3ccccc3-c3ccncc3)O2)cc1 [(S)-1]
134
c1ccc(C2(c3ccccc3)OCC(CNCCOc3ccccc3-c3ccncc3)O2)cc1 (racemic)
138
Cn1cncc1-c1ccccc1OCCNC[C@H]1COC(c2ccccc2)(c2ccccc2)O1 [(S)-2]
156
Cn1cncc1-c1ccccc1OCCNCC1COC(c2ccccc2)(c2ccccc2)O1 (racemic)
158

Consider now this further compound.
Incoming: Which Emax value is on record for c1ccc(C2(c3ccccc3)OC[C@@H](CNCCOc3ccccc3-c3ccncc3)O2)cc1 [(R)-1] ?
Outgoing: 149

---

- measured_target: hERG (Homo sapiens, UniProt Q12809)
- Construct: host or cells: CHO (hERG-CHO)
- Sequence (Q12809 whole entry): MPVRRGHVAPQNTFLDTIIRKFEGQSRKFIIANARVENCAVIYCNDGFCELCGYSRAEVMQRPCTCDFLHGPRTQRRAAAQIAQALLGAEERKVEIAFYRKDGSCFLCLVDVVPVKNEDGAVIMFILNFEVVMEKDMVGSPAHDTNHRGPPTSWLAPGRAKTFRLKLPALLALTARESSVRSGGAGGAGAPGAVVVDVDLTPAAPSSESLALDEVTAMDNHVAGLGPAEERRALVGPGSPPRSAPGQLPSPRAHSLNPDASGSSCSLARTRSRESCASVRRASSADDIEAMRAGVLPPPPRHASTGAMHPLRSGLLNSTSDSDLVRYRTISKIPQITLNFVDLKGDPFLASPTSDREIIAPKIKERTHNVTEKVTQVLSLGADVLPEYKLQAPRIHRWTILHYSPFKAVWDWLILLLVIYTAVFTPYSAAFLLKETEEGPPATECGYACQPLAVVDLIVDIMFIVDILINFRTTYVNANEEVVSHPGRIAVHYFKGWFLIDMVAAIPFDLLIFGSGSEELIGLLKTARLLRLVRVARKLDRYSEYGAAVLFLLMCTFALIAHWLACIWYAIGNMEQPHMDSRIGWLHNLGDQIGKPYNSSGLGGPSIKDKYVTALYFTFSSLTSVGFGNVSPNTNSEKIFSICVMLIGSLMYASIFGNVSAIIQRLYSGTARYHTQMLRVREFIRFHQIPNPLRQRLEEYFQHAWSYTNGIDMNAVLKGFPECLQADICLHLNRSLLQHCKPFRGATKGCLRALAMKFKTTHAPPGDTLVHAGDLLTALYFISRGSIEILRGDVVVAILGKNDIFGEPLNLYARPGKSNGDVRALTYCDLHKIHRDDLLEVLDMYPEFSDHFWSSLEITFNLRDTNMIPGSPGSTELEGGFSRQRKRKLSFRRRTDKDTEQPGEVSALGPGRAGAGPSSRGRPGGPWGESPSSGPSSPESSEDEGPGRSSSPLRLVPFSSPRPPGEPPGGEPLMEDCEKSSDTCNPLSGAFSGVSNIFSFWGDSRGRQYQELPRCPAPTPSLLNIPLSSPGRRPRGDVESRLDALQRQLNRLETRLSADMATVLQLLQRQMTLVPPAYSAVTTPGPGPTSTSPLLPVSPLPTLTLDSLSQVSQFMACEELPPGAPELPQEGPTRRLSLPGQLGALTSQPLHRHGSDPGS
- assay_explanation: CiPA hERG QPatch assay (hERG-CHO automated patch-clamp)
- Type: cell-based
- stated_conditions: human, CHO cells expressing hERG (hERG-CHO); 0.1 μM; read-out: % inhibition of tail current in hERG-CHO
assay_endpoint: inhibition at 0.1 µM (%)
Write it as a number; the unit % goes unstated.

Incoming: Which inhibition at 0.1 µM value is on record for c1ccc(C2(c3ccccc3)OC[C@H](CNCCOc3ccccc3-c3ccncc3)O2)cc1 [(S)-1] ?
Outgoing: -3.35
